# Test system: Chordin-like protein 2 (CHRDL2)
# assay-info: compounds binding chordin-like 2 – biochemical, small-molecule microarray, 635 nm fluorescence, primary screen (AID 1126);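 note: printed compound slides probed with Chrdl2 protein at 4 µg/mL for 1 h at 4 C; score merges 667 nm emission intensity with signal to noise over three replicate slides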
# study-conditions: fluorescence 635 nm, higher = more signal
reported-metric: composite z-score
API note: the answer field is a bare number with no unit suffix.

The recorded composite z-score for entry C#CCN([C@@H](Cc1ccccc1)C(=O)OC)[C@@H](/C=C/C1CC1)[C@H](O)Cc1ccccc1 equals 1.16

Documented composite z-score of COc1cc(C(O)C2C=CC3C(=O)N(C)C(=O)C3N2Nc2ccccc2)cc(OC)c1OC (stereo not drawn) : -0.0836

The value of composite z-score measured for the compound CC(C)(C)OC(=O)COc1cccc(C(=O)CCN2CCOCC2)c1 turned out to be 0.309

Form: compound = CCCCCN1CC=CC23O[C@@H]4/C=C\CCCOC(=O)C4[C@H]2C(=O)N(C(C)CO)[C@@H]3C1=O (stereo partly drawn) ; composite z-score = -1.14

// recorded composite z-score for CCCC[C@@H](O)C1=C(COC)C[C@H]2C(=O)N(C)C(=O)[C@H]2[C@H]1CO : 0.831

Sample C=CCOC(=O)[C@@]1(Cc2ccccc2)C[C@H]2CO[C@H](c3ccc(OC)cc3)N2C1=O ; composite z-score observed: 0.194

For CC[C@@H]1O[Si](C(C)C)(C(C)C)c2c1cc(-c1cc(C)c(OC)c(C)c1)nc2-c1ccc(Oc2ccccc2)cc1 the compound record lists composite z-score as -0.77

In plain terms, CC(C)(C)OC(=O)CC[C@@]1(C(=O)NCC(O)CO)N=C(c2ccc(OCCCO)cc2)O[C@@H]1c1ccccc1CN=[N+]=[N-] (stereo partly drawn) has a documented composite z-score of 0.333
